# target: T1, PSMA Fab
# T1 construct: also called Anti-PSMA Fab; 006 PSMA Fab
# experimental-details: clonal phage ELISA on captured PSMA Fab pre-incubated with PSMA antigen as competitor, anti-M13 HRP detection;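 also: crude clonal phage supernatants tested by ELISA, wells first treated with blocking buffer plus PSMA antigen, bound phage read out via HRP-linked anti-M13 antibody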
Where no end group is shown, it is not given here.
property: phage binding ELISA signal (Anti-PSMA Fab, PSMA antigen present)
Give only the figure.

Some binders with recorded phage binding ELISA signal (Anti-PSMA Fab, PSMA antigen present):
Enquiry: Name the recorded phage binding ELISA signal (Anti-PSMA Fab, PSMA antigen present) of the binder listed here: GPIMCQPRWMCEGF (cysteine pairing not given here; also: fused to phage pIII, orientation and linker not given here, Clonal phage of the Peptide-180 library, tested as crude supernatant; not shown: fused to pIII of the bacteriophage) [Phage-3146]
Return: 0.0807

Enquiry: Name the recorded phage binding ELISA signal (Anti-PSMA Fab, PSMA antigen present) of the binder listed here: AEYMCIPSWMCHGM (cysteine pairing not given here; also: fused to phage pIII, orientation and linker not given here, Clonal phage of the Peptide-180 library, tested as crude supernatant; not shown: fused to pIII of the bacteriophage) [Phage-3148]
Return: 0.0861

Further cases:
Enquiry: Name the recorded phage binding ELISA signal (Anti-PSMA Fab, PSMA antigen present) of the binder listed here: VSSMCKPAWMCSGF (cysteine pairing not given here; also: fused to phage pIII, orientation and linker not given here, Clonal phage of the Peptide-180 library, tested as crude supernatant; not shown: fused to pIII of the bacteriophage) [Phage-3155]
Return: 0.0629

Enquiry: Name the recorded phage binding ELISA signal (Anti-PSMA Fab, PSMA antigen present) of the binder listed here: WDQWCVPKWMCQGF (cysteine pairing not given here; also: fused to phage pIII, orientation and linker not given here, Clonal phage of the Peptide-180 library, tested as crude supernatant; not shown: fused to pIII of the bacteriophage) [Phage-3152]
Return: 0.197
